Hey, just so you know, these numbers are from PubChem BioAssay (NCI).

# System: UO-31 renal
# experimental.protocol: NCI tumour cell line growth inhibition, 48 h
List of TGI values.

compound: N#CNC(N)=NCc1ccccc1
TGI: > 100 µM
//
compound: C[C@]12CC[C@H]3[C@@H](CCC4=CC(=O)CC[C@@]43C)[C@@H]1CC[C@@H]2c1csc(N)n1
TGI: 11.2 µM
//
compound: CC1CC(N2CCOCC2)=Nc2ccccc2N1C (stereo unspecified)
TGI: > 100 µM
//
compound: N#C/C(=C\c1cc(OCc2ccccc2)c(OCc2ccccc2)cn1)C(N)=O
TGI: > 100 µM
//
compound: O=C1NC(=O)c2c1n(Cc1ccccc1)c(=O)n2Cc1ccccc1
TGI: > 100 µM
//
compound: O=C(CC(NC(=O)C(F)(F)F)C(=O)O)OCc1ccccc1 (stereo unspecified)
TGI: > 100 µM

====

# Tested on: MDA-MB-231 breast
# experimental.protocol: NCI tumour cell line growth inhibition, 48 h

compound: COc1ccc(OC)c(/C=C/c2nc(=S)n(-c3ccc(Cl)cc3)[nH]2)c1
assay.target: MDA-MB-231 breast
TGI: > 100 µM

compound: O=C(Nc1ccc(N=C=S)cc1Cl)c1cc(Br)cc(Br)c1O
assay.target: MDA-MB-231 breast
TGI: 46.2 µM

compound: O=C(NCCNCCO)c1ccc2c(c1)oc1cc3ccccc3c(=O)n12
assay.target: MDA-MB-231 breast
TGI: > 50 µM

compound: C[C@@H]1CC[C@@]2(C)C(C(=O)O)=CCCC2[C@@]1(C)CC(=O)c1ccoc1 (stereo not given in full)
assay.target: MDA-MB-231 breast
TGI: > 25 µM

compound: Cc1nnc2n(c1=O)CCCN2C
assay.target: MDA-MB-231 breast
TGI: > 100 µM

compound: O=C1Oc2ccccc2C(=O)/C1=C1/C=C(c2ccccc2)SS1
assay.target: MDA-MB-231 breast
TGI: > 100 µM

compound: COC1OC(C)C(NC(=O)OCC(Cl)(Cl)Cl)C2OC(C)(C)OC12 (stereo not given)
assay.target: MDA-MB-231 breast
TGI: > 100 µM

compound: CC1=C(C(=O)Nc2ccccc2)C(c2ccc(N(C)C)cc2)C(C(=O)Nc2ccccc2)=C(C)N1
assay.target: MDA-MB-231 breast
TGI: > 100 µM

compound: O=C(/C=C/C12c3ccccc3C(c3ccccc31)C1C(=O)NC(=O)C12)c1ccccn1 (stereo not given)
assay.target: MDA-MB-231 breast
TGI: 4.44 µM

compound: CC(C)(CO)CNC(=O)c1ccc2[nH]c(O)c(N=Nc3ccc(S(N)(=O)=O)cc3)c2c1
assay.target: MDA-MB-231 breast
TGI: > 25 µM

====

# Test system: UACC-62 melanoma
# experimental.protocol: NCI tumour cell line growth inhibition, 48 h

compound: CCN(CC)CCCNc1ccc(C)c2sc3ccccc3c(=O)c12
TGI: 0.42 µM

compound: CC(=O)O[C@H]1C(=O)[C@@]2(C)C([C@H](OC(=O)c3ccccc3)[C@]3(O)C[C@H](OC(=O)[C@H](O)[C@@H](NC(=O)c4ccccc4)c4ccccc4)C(C)=C1C3(C)C)[C@]1(OC(C)=O)CO[C@@H]1C[C@@H]2O (some centres not stated)
TGI: > 50 µM

compound: Cc1nnc2n(c1=O)CCCN2C
TGI: > 100 µM

compound: CC1CC(N2CCOCC2)=Nc2ccccc2N1C (configuration not stated)
TGI: > 100 µM

compound: Cn1c2ccccc2c2ccc3c(c21)C(=O)c1ccc2c4ccccc4n(C)c2c1C3=O
TGI: > 100 µM

compound: CCN=c1sc2c(n1NC(=O)c1cc3ccc1CCc1ccc(cc1)CC3)C(=O)c1ccccc1C2=O
TGI: 1.2 µM

compound: CCCCI(O)OS(=O)(=O)c1ccc(C)cc1
TGI: > 100 µM

compound: Cc1ccc2c(-c3ccnc(Nc4ccc5c(c4)OCCO5)n3)c(-c3ccc(C(F)(F)F)cc3)nn2n1
TGI: > 25 µM

compound: CN(C)CCNC(=O)c1cccc2c1Nc1ccccc1S2
TGI: 28.4 µM

compound: CN(/N=C1\C(=O)Nc2ccccc21)c1ccccc1
TGI: > 100 µM

compound: CN(CCN1CCCC1)C1CCc2cc(Cl)c(Cl)cc2C1 (configuration not stated)
TGI: 19.4 µM

compound: COC(=O)/C=C(\C)CC/C=C(\C)CCC1OC1(C)C (configuration not stated)
TGI: 19.8 µM

compound: COc1ccc2sc3c(NCCCN)nc4ccccc4c3c(=O)c2c1
TGI: 3.21 µM

compound: Cc1ccc(S(=O)(=O)OCC/C(=C\[Si](C)(C)C)c2ccccc2)cc1
TGI: > 100 µM

compound: CCOC(=O)CSc1nc(N)c2c(-c3ccccc3)c3c(nc2n1)CCCC3
TGI: > 100 µM

compound: CCOC1C=CC(=O)C(CO)O1 (configuration not stated)
TGI: 25.9 µM

compound: COCOc1ccc(C(=O)Oc2cccc3c2OC(C)(C)O3)c(OCOC)c1
TGI: 95.7 µM

compound: NCCN1CCCCCc2ccccc21
TGI: > 10 µM

compound: CSC1=Nc2c(c(C)c(C)n2COC(CO)CO)C2=NC(=O)CN12
TGI: > 100 µM

compound: O=C(OCc1ccc2c(Br)cc(Br)c(O)c2n1)c1cc2ccccc2[nH]1
TGI: 2.47 µM

compound: O=C(O)c1nc2ccc(C(F)(F)F)cc2[nH]c1=O
TGI: > 100 µM

compound: O=C1NC(=O)c2c1n(Cc1ccccc1)c(=O)n2Cc1ccccc1
TGI: > 100 µM

====

# System: SK-MEL-28 melanoma
# experimental.protocol: NCI tumour cell line growth inhibition, 48 h; in the data active = GI50 below about 0.43 µM; inactive = the rest
Outcomes: active, inactive

compound: Cn1c([N+](=O)[O-])cnc1C=C1C(=O)c2ccccc2C1=O
assay.target: SK-MEL-28 melanoma
class.name: inactive
//
compound: CC1(C)N=C(N)N=C(N)N1c1ccc(CCC(=O)Nc2ccc(S(=O)(=O)F)cc2)cc1
assay.target: SK-MEL-28 melanoma
class.name: inactive
//
compound: CC(C)(CO)CNC(=O)c1ccc2[nH]c(O)c(N=Nc3ccc(S(N)(=O)=O)cc3)c2c1
assay.target: SK-MEL-28 melanoma
class.name: inactive
//
compound: N#Cc1nc2c(S(=O)(=O)c3ccc(Cl)cc3)c(N)n(Nc3cccc(Cl)c3)c2nc1C#N
assay.target: SK-MEL-28 melanoma
class.name: active
//
compound: CSC1=Nc2c(c(C)c(C)n2COC(CO)CO)C2=NC(=O)CN12
assay.target: SK-MEL-28 melanoma
class.name: inactive
//
compound: CN[C@@H](C)C(=O)N[C@H]1CN(S(=O)(=O)c2cccc(S(=O)(=O)N3CC[C@H]4CC[C@@H](C(=O)NC(c5ccccc5)c5ccccc5)N4C(=O)[C@@H](NC(=O)[C@H](C)NC)C3)c2)CC[C@H]2CC[C@@H](C(=O)NC(c3ccccc3)c3ccccc3)N2C1=O
assay.target: SK-MEL-28 melanoma
class.name: inactive
//
compound: COc1ccc2c(c1)c(-c1nc(-c3c[nH]c4ncccc34)cs1)cn2CCCN1CCOCC1
assay.target: SK-MEL-28 melanoma
class.name: inactive
//
compound: CNC(=O)c1ncccc1Nc1nc(Nc2cc3c(cc2OC)CCCN3C(=O)CN(C)C)nc2[nH]ccc12
assay.target: SK-MEL-28 melanoma
class.name: inactive
//
compound: COc1ccc2c(c1)C(=O)c1c-2c(Nc2ccccc2OC)nc2ccccc12
assay.target: SK-MEL-28 melanoma
class.name: inactive
//
compound: CCCCCCCCCCCC[N+]1(CCCCCCCCCCCC)CCCC(C)C1 (stereo not given)
assay.target: SK-MEL-28 melanoma
class.name: inactive
//
compound: CC(=O)O[C@H]1C(=O)[C@@]2(C)C([C@H](OC(=O)c3ccccc3)[C@]3(O)C[C@H](OC(=O)[C@H](O)[C@@H](NC(=O)c4ccccc4)c4ccccc4)C(C)=C1C3(C)C)[C@]1(OC(C)=O)CO[C@@H]1C[C@@H]2O (stereo not given in full)
assay.target: SK-MEL-28 melanoma
class.name: active
//
compound: O=C1NN(C2=NNC3(C(=O)N2)c2ccccc2-c2ccccc23)C(c2ccccc2)=N/C1=C/c1ccc(Cl)cc1
assay.target: SK-MEL-28 melanoma
class.name: inactive
//
compound: Cc1c2ccnc(C(N)=O)c2c(C)c2c1[nH]c1ccccc12
assay.target: SK-MEL-28 melanoma
class.name: inactive
//
compound: CC(=O)ON1CCCC(P(=O)(OCOC(=O)C(C)(C)C)OCOC(=O)C(C)(C)C)C1=O (stereo not given)
assay.target: SK-MEL-28 melanoma
class.name: inactive
//
compound: CCCCCCCCCCCCCCCCCCOc1ccccc1CC(=O)NCC[N+]1(C)CCOCC1
assay.target: SK-MEL-28 melanoma
class.name: inactive
//
compound: c1ccc(-c2c(-c3ccccc3)[n+](Cc3ccc4ccccc4c3)c(-c3ccc(-c4nc5ccccc5s4)cc3)n2Cc2ccc3ccccc3c2)cc1
assay.target: SK-MEL-28 melanoma
class.name: active
//
compound: COc1cc2c(cc1Nc1nc(N3CCc4ccccc43)c3cc[nH]c3n1)N(C(=O)CN(C)C)CC2
assay.target: SK-MEL-28 melanoma
class.name: inactive
//
compound: CCn1cc(C(=O)O)c(=O)c2cc(F)c(N3CCN(S(=O)(=O)c4cccc5ccccc45)CC3)cc21
assay.target: SK-MEL-28 melanoma
class.name: inactive
//
compound: O=C(OCc1ccc2c(Br)cc(Br)c(O)c2n1)c1cc2ccccc2[nH]1
assay.target: SK-MEL-28 melanoma
class.name: inactive
//
compound: COc1cc(CNc2nc3cc(N)cc(N)c3nc2-c2ccccc2)cc(OC)c1
assay.target: SK-MEL-28 melanoma
class.name: inactive
